Hi there, I'd appreciate the recorded cleaved RNA product abundance for every entry that follows.
- Tested on: Bacillus subtilis
- Assay procedure: cleaved RNA product abundance (RNA/gDNA barcode ratio) relative to median wild-type variant (ratio to wild type); higher = more accumulation of the downstream cleavage product
- Condition set: experiment (reporter, strain, medium): exp 4a: truncated aprE reporter, strain BJT201 with 2% xylose (RNase J1 expressed); cleavage site: cggR-gapA (positions -7 to +36 mutated)
Response field accepts a number only; no unit should be typed.

Any idea what its cleaved RNA product abundance is? The sequence is "ACAGACGAAGGAGCCGCACAGAAGTTATTAAGGGATTAATAATCCCTCAATATAAATATCTCTCACTTATTTAAA" 0.962

Any idea what its cleaved RNA product abundance is? The sequence is "ACAGACGAAGGAGCCGCAAAGAAGTTATTAAGAGATGAATAATCCCTCAATGTAAATATCTCTCACTTATTTAAA" 0.0609

Any idea what its cleaved RNA product abundance is? The sequence is "ACAGACGAAGGAGCCGCAAAAAAGTTATTAAGGGATGAATAACCCCTCAATATAAATATCTCTCACTTATTTAAA" 0.458

Any idea what its cleaved RNA product abundance is? The sequence is "ACAGACGAAGGAGCCGCAAAGAAGTTATTAAGGGATTAATAAGCCCTCAATATAAATATCTCTCACTTATTTAAA" 0.667
